Data credit: patent US20120095036A1

- System: Aβ42
- Assay Comment: Method 2: Aβ42 Alphalisa on supernatant of SKNBE2 cells carrying APP 695 wild type
- Format: cell-based
- Experimental Setup: Homo sapiens, SKNBE2 cells APP 695 wild type, overnight
Readout Label: IC50 (µM)

Use the examples below as a reference point.
Cc1ncc(-c2ccc(Nc3cccc4cn(CC(F)(F)F)nc34)cn2)o1: 0.363
COc1cccc(-n2nc3c(Nc4ccc(-n5cnc(C)c5)c(OC)c4)cccc3c2C)c1: 0.007
COc1cccc(-n2nc3c(Nc4ccc(-c5ocnc5C)nc4)cccc3c2C)c1: 0.022
COc1cc(Nc2cccc3cn(CC(F)(F)F)nc23)ccc1-c1cnc(C)o1: 0.162
COc1cc(Nc2cccc3cn(Cc4ccc(F)cc4)nc23)ccc1-n1cnc(C)c1: 0.014

1. Cc1ncc(-c2ccc(Nc3cccc4c(CN)n(-c5ccc(F)cc5)nc34)cc2)o1
2. COc1cc(Nc2cccc3c(C)n(-c4ccc(F)cc4)nc23)ccc1-c1cnc(C)o1
3. COc1cccc(-n2nc3c(Nc4ccc(-c5cnc(C)o5)cc4)cccc3c2C)c1
4. COc1cc(Nc2cc(C(C)C)nc3cn(CC(F)(F)F)nc23)ccc1-n1cnc(C)n1
5. COc1cccc(-n2cc3cccc(Nc4ccc(-n5cnc(C)n5)c(OC)c4)c3n2)c1
Task item: Arrange items by their IC50 values in increasing order. A ranking is expressed here by listing the labels in the requested order.
Reply: 3, 2, 5, 1, 4

----------
Readout Label: melting point (°C)

Cc1ncn(-c2ccc(Nc3cccc4c(C)n(CCCC(F)(F)F)nc34)cc2F)n1 [Compound 22]: 135.6
COc1nc(Nc2cccc3cn(CC(F)(F)F)nc23)ccc1-n1cnc(C)c1 [Compound 54]: 206
COc1cccc(-n2nc3c(Nc4ccc(-n5cnc(C)c5)c(OC)c4)cccc3c2C)c1 [Compound 2]: 184.4
CC(C)c1ncc(-c2ccc(Nc3cccc4cn(CC(F)(F)F)nc34)cc2)o1 [Compound 48]: 103.9
Cc1ncc(-c2ccc(Nc3cccc4cn(-c5ccc6c(c5)OCO6)nc34)cc2)o1 [Compound 34]: 175
Cc1ncn(-c2ccc(Nc3cccc4c(C)n(-c5ccc(F)cc5F)nc34)cc2F)n1 [Compound 23]: 146.9

----------
- System: Aβtotal
- Assay Comment: Method 1: Aβtotal sandwich ELISA on media of SKNBE2 cells carrying APP 695 wild type
- Format: cell-based
- Experimental Setup: Homo sapiens, SKNBE2 cells APP 695 wild type, 18 hours
pIC50: −log10 of the molar value.
The entries below come with measured pIC50 values attached.

Answered cases to consult:
COc1cc(Nc2cccc3cn(CC(F)(F)F)nc23)ccc1-n1cnc(C)n1: < 5.52
COc1cc(Nc2cccc3cn(CC(F)(F)F)nc23)ccc1-c1cnc(C)o1: < 5.52
Cc1ncc(-c2ccc(Nc3cccc4c(CN)n(-c5ccc(F)cc5)nc34)cc2)o1: < 5.00
COc1cccc(-n2nc3c(Nc4ccc(-c5cnc(C)o5)cc4)nccc3c2C)c1: < 5.52
CCOc1cc(C)c(-n2nc3c(Nc4ccc(-c5cnc(C)o5)cc4)cccc3c2C)cc1C(C)C: < 5.52
COc1cccc(-n2nc3c(Nc4ccc(-c5cnc(C)o5)cc4)cccc3c2C)c1: < 6.00
COc1cc(Nc2cccc3cn(C)nc23)ccc1-n1cnc(C)c1: < 5.00
COc1cc(Nc2cccc3c(C)n(-c4ccc(F)cc4F)nc23)ccc1-n1cnc(C)c1: < 5.52
COc1ccc(C)c(-n2nc3c(Nc4ccc(-c5cnc(C)o5)nc4)cccc3c2C)c1: < 5.52
COc1cc(Nc2cccc3c(C)n(-c4ccc(F)cc4)nc23)ccc1-c1cnc(C)o1: < 5.52

Entry `Cc1ncc(-c2ccc(Nc3cccc4cn(CC(F)(F)F)nc34)cn2)o1` , pIC50 reported as < 5.52

Form field pIC50, entry `COc1cccc(-n2nc3c(Nc4ccc(-n5cnc(C)n5)c(OC)c4)cccc3c2C)c1` : < 5.52

Reported pIC50 for `Cc1ncc(-c2ccc(Nc3cccc4c(C#N)n(-c5ccc(F)cc5)nc34)cc2)o1` was < 5.52

Memo: `COc1cccc(-n2nc3c(Nc4ccc(-c5cnn(C)c5)c(F)c4)cccc3c2C)c1` , reported pIC50: < 5.52
